Measured protein stability index of individual entries
B1: CCDC6 (parent)
chain: ASVTIQARAEQEEEFISNTLFKKI

- Variants of: B1
- Assay summary: protein stability index of a GFP-peptide fusion (GPS, HEK-293T) (PSI 1-6); higher = more stable;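 further: lentivirally expressed fusions sorted by FACS into six bins by GFP to DsRed ratio, PSI derived from sequencing read proportions per bin multiplied by bin number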
- Experimental parameters: c terminus: a fixed tail appended
Lab note: write the figure by itself, no unit.

// known answers, use as guide
>>> print(df.to_string())
   variant  result_value
0     E14F          1.87
1     T19S          3.47
2     L20T          4.64

Enquiry: # protein stability index lookup, item V3H
Return: 4.1

Enquiry: # protein stability index lookup, item N18S
Return: 3.54

Enquiry: # protein stability index lookup, item A9W
Return: 2.27

Enquiry: # protein stability index lookup, item A1D
Return: 4.27
